biological target: human Arginine Vasopressin Receptor 1a (AVPR1a) (Homo sapiens); assay: Vasopressin V1a receptor antagonist assay (FLIPR calcium, CHO-AVPR1a cells)
Sequence (P37288 whole entry): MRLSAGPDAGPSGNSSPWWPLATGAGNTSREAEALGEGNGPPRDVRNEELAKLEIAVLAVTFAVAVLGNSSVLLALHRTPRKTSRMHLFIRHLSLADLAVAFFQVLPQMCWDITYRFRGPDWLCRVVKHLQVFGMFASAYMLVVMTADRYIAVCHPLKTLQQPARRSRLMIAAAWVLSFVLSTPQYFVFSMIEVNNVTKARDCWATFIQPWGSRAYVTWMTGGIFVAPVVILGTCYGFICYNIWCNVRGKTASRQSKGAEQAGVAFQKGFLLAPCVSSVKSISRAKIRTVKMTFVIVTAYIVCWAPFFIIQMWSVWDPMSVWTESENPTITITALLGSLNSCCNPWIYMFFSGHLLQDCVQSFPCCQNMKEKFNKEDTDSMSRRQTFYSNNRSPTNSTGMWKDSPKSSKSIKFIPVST
pIC50: −log10 of the molar value.

| Molecule | pIC50 |
| --- | --- |
| CC1COc2cc(Cl)ccc2N1C(=O)N1CC2(C1)CN(c1nn(C)c3ncccc13)C2 (single isomer, unassigned) [20-15-A] | 6.30 to 7.00 |
| O=C(N1CC2(C1)CN(c1ccccn1)C2)N1CCC(O)c2cc(Cl)ccc21 (single isomer, unassigned) [13-2-B] | > 7.00 |
| Cc1cc(C)nc(N2CC3(CN(C(=O)N4CCOc5cc(Cl)ccc54)C3)C2)n1 | > 7.00 |
| O=C(N1CC2(C1)CN(c1ccc(F)cn1)C2)N1CCCc2cc(Cl)ccc21 | > 7.00 |
| Cc1cnc(N2CC3(CN(C(=O)N4c5ccc(Cl)cc5OCC4C)C3)C2)cn1 (centres unmarked) [20-5] | > 7.00 |
| Cc1nc(N2CC3(CN(C(=O)N4c5ccc(Cl)cc5OCC4C)C3)C2)ncc1F (single isomer, unassigned) [20-7-B] | > 7.00 |
| CC1CN(C(=O)N2CC3(C2)CN(c2ccc(F)cn2)C3)c2ccc(Cl)cc2O1 (single isomer, unassigned) [9-3-B] | > 7.00 |
| CC1COc2cc(Cl)ccc2N1C(=O)N1CC2(C1)CN(c1cccnn1)C2 (single isomer, unassigned) [9-1-B] | > 7.00 |
| CC1COc2cc(F)ccc2N1C(=O)N1CC2(C1)CN(c1cccnn1)C2 (centres unmarked) [1-62] | > 7.00 |
| O=C(N1CC2(C1)CN(c1ccc(F)cn1)C2)N1CCCS(=O)(=O)c2cc(Cl)ccc21 | ≤ 6.00 |
| Cc1ccnc(N2CC3(CN(C(=O)N4c5ccc(Cl)cc5OCC4C)C3)C2)n1 (centres unmarked) [20-12] | > 7.00 |
| CC1COc2cc(F)ccc2N1C(=O)N1CC2(C1)CN(c1cnccn1)C2 (centres unmarked) [1-65] | > 7.00 |
| CC(c1cccnc1)N1CC2(CN(C(=O)N3CCOc4cc(Cl)ccc43)C2)C1 (centres unmarked) | ≤ 6.00 |
| CC1COc2cc(Cl)ccc2N1C(=O)N1CC2(C1)CN(c1cc(C#N)ccn1)C2 (single isomer, unassigned) [20-6-B] | > 7.00 |
| COc1nccnc1N1CC2(CN(C(=O)N3CCOc4cc(Cl)ccc43)C2)C1 | > 7.00 |
| CC1COc2cc(F)ccc2N1C(=O)N1CC2(C1)CN(c1cccnn1)C2 (single isomer, unassigned) [1-62-B] | > 7.00 |
| CC1COc2cc(F)ccc2N1C(=O)N1CC2(C1)CN(c1cc(C#N)ccn1)C2 (single isomer, unassigned) [20-3-A] | ≤ 6.00 |
| CC1COc2cc(F)c(F)cc2N1C(=O)N1CC2(C1)CN(c1ncccn1)C2 (single isomer, unassigned) [19-1-A] | ≤ 6.00 |
| CC1COc2cc(F)ccc2N1C(=O)N1CC2(C1)CN(c1noc3ccccc13)C2 (single isomer, unassigned) [4-3-B] | > 7.00 |
| O=C(N1CC2(C1)CN(c1noc3ccccc13)C2)N1CCOc2cc(Cl)ccc21 | > 7.00 |
| Cc1nccnc1N1CC2(CN(C(=O)N3c4ccc(Cl)cc4OCC3C)C2)C1 (single isomer, unassigned) [20-10-B] | ≤ 6.00 |
| CC1COc2cc(Cl)c(F)cc2N1C(=O)N1CC2(C1)CN(c1ncccn1)C2 (single isomer, unassigned) [19-2-A] | 6.30 to 7.00 |
| Cc1cnnc(N2CC3(CN(C(=O)N4CCOc5cc(Cl)ccc54)C3)C2)c1 | > 7.00 |
| COc1ccc(N2CC3(CN(C(=O)N4CCOc5cc(Cl)ccc54)C3)C2)nn1 | 6.30 to 7.00 |
| O=C(N1CC2(C1)CN(c1cccnc1)C2)N1CCOc2cc(Cl)ccc21 | > 7.00 |
| Cc1cccc(N2CC3(CN(C(=O)N4CCOc5cc(Cl)ccc54)C3)C2)n1 | > 7.00 |
| CC1COc2cc(F)ccc2N1C(=O)N1CC2(C1)CN(c1noc3ccccc13)C2 (centres unmarked) [4-3] | > 7.00 |
| CC1COc2cc(Cl)ccc2N1C(=O)N1CC2(C1)CN(c1ccc(F)cn1)C2 (single isomer, unassigned) [1-73-B] | > 7.00 |
| COc1ccc2c(c1)OCC(C)N2C(=O)N1CC2(C1)CN(c1ccc(F)cn1)C2 (single isomer, unassigned) [1-59-A] | ≤ 6.00 |
| CC1COc2cc(Cl)ccc2N1C(=O)N1CC2(C1)CN(c1noc3ccccc13)C2 (centres unmarked) | > 7.00 |
| Cc1cncc(N2CC3(CN(C(=O)N4CCOc5cc(Cl)ccc54)C3)C2)n1 | > 7.00 |
| Cc1cnc(N2CC3(CN(C(=O)N4c5ccc(Cl)cc5OCC4C)C3)C2)nc1 (centres unmarked) [20-13] | > 7.00 |
